experiment: Stability of cannabinoid and Vitamin E components of Beverage 2 (AB Red) stored at 8° C. and 21-25° C., LCMSMS over 570 days; details: 8° C., 12 days
Please use Met whenever Stability of Cannabinoids in AB Red is not below 0.5 µg/mL, and Not met whenever it is.

In [3]: df
Out[3]:
                                   molecule  category_label
0   CCCCCc1cc(O)c(C/C=C(\C)CCC=C(C)C)c(O)c1             Met
1  C=C(C)[C@@H]1CCC(C)=C[C@H]1c1c(O)cc(CCC)cc1O         Not met
2  C=C(C)[C@@H]1CCC(C)=C[C@H]1c1c(O)cc(CCCCC)c(C(=O)O)c1O             Met
3  CCCCCc1cc(O)c2c(c1)OC(C)(C)[C@@H]1CCC(C)=C[C@@H]21 [D9 THC, delta-9-tetrahydrocannabinol, reference compound]             Met
4  CCCCCc1cc2c(c(O)c1C(=O)O)[C@@H]1C=C(C)CC[C@H]1C(C)(C)O2 [D9 THCA, delta-9-tetrahydrocannabinolic acid]             Met

input: Dear colleague, could you confirm whether CCCc1cc(O)c2c(c1)OC(C)(C)[C@@H]1CCC(C)=C[C@@H]21 [THCV, delta-9-tetrahydrocannabivarin] has Stability of Cannabinoids in AB Red at or above 0.5 µg/mL?
output: Met

input: Quick check: does CCCCCc1cc(O)c2c(c1)OC(C)(C)c1ccc(C)cc1-2 have Stability of Cannabinoids in AB Red greater than or equal to 0.5 µg/mL?
output: Met

input: Please check the record CCCCCc1cc(O)c2c(c1)OC(C)(CCC=C(C)C)C=C2 (stereo not drawn) and state if its Stability of Cannabinoids in AB Red is at or above 0.5 µg/mL.
output: Not met
